Value source: patent US20230135152A1

Below, each entry is listed alongside its reported IC50.
target: PIKFYVE (Homo sapiens); experiment: PIKFYVE assay (luciferase ADP-Glo kinase assay, Promega); assay type: biochemical; settings: Table 3
experimental readout: IC50

* Cn1cc(CCOc2nc(Oc3cc(-c4ccccc4)nn3C)cc(N3CCOCC3)n2)cn1 [Compound 212] | 3 to 10 nM
* Cn1ccc(COc2nc(N3CCOCC3)cc(-n3ccc(-c4ccccc4)n3)n2)n1 [Compound 115] | < 3 nM
* Cc1cccc(-c2ccn(-c3cc(N4CCOCC4)nc([C@H]4C[C@H](O)CO4)n3)n2)c1 [Compound 332] | 3 to 10 nM
* COC(Cc1ccccc1)c1nc(N2CCOCC2)cc(-n2ccc(-c3ccccc3)n2)n1 (stereo not shown) [Compound 177] | 10 to 100 nM
* CO[C@H](CO)c1nc(N2CCOCC2)cc(-n2nc(-c3csc4ccccc34)cc2C)n1 [Compound 278] | < 3 nM
* CO[C@H](CO)c1nc(N2CCOCC2)cc(-n2nc(-c3ccccc3)cc2C)n1 (single isomer, unassigned) [Compound 205] | 10 to 100 nM
* Cc1cccc(-c2ccn(-c3cc(N4CCOCC4)nc(OCCc4c[nH]cn4)n3)n2)c1 [Compound 119] | 3 to 10 nM

----------
biological target: PIKFYVE (Homo sapiens, UniProt Q9Y2I7); assay: PIKFYVE assay (luciferase ADP-Glo kinase assay, Promega); assay type: biochemical; details: Table 2
Sequence (Q9Y2I7 whole entry): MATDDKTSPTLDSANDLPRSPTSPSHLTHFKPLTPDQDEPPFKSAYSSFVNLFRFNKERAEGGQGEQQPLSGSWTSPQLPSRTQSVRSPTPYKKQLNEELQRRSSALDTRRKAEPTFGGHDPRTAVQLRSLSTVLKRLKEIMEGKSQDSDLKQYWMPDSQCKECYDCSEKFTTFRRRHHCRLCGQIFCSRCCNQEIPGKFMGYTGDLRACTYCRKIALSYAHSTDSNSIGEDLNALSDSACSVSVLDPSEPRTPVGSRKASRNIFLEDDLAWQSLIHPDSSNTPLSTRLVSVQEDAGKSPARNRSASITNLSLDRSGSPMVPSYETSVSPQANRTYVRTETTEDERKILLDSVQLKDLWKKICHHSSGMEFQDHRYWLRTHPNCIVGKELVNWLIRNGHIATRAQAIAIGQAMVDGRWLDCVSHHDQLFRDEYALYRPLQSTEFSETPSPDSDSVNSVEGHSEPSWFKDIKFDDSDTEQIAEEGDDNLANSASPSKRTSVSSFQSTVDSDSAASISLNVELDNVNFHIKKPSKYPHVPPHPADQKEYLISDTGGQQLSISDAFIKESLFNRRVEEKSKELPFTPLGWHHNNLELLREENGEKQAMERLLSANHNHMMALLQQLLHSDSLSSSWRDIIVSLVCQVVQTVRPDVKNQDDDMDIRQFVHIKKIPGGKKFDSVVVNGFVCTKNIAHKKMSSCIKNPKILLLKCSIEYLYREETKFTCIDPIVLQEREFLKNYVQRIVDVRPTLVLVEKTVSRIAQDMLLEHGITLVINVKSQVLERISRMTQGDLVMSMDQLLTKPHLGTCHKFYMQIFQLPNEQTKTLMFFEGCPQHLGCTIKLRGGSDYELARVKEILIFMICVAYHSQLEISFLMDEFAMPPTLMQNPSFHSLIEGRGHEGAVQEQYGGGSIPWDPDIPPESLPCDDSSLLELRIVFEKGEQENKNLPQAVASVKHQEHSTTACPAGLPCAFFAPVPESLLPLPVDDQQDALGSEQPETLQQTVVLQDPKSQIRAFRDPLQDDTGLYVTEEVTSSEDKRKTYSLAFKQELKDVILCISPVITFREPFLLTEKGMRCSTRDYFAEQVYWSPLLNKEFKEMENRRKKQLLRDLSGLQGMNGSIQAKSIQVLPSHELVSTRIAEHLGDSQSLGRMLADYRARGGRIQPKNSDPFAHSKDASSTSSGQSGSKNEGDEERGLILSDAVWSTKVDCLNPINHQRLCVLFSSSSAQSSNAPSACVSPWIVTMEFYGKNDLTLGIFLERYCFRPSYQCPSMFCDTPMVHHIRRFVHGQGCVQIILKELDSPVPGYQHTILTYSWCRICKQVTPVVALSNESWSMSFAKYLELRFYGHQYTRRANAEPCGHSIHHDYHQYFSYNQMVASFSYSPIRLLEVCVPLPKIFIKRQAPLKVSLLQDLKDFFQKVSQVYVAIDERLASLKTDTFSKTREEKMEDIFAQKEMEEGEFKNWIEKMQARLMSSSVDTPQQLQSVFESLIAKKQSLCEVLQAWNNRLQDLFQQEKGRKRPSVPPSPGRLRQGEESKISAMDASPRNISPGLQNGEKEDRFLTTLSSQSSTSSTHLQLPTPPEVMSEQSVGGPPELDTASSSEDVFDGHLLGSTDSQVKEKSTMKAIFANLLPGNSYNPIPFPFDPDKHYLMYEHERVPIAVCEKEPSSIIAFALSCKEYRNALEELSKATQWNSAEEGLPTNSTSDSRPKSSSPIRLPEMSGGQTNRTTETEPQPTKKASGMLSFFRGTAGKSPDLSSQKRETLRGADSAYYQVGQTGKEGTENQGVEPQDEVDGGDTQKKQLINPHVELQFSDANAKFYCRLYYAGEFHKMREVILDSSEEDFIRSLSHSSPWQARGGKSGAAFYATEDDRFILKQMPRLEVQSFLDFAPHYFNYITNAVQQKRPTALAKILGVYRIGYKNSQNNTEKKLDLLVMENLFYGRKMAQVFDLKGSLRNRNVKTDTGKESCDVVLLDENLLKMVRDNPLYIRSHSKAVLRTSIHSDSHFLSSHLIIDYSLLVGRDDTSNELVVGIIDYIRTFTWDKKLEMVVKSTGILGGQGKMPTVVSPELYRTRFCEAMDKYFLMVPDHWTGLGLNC
Below, each entry is listed alongside its reported IC50.
experimental readout: IC50

- Cn1cc(CCOc2nc(N3CCOCC3)cc(-n3ccc(-c4ccccc4)n3)n2)cn1 [Compound 73]: < 5 nM
- Clc1ccc(-c2ccn(-c3cc(N4CCOCC4)nc(OCCc4ccccn4)n3)n2)cc1 [Compound 40]: 101 to 1000 nM
- COc1cc(N2CCOCC2)nc(-n2ccc(-c3cccc(C)c3)n2)n1 [Compound 87]: 101 to 1000 nM

----------
molecular target: PIKFYVE (Homo sapiens, UniProt Q9Y2I7); assay: PIKFYVE assay (luciferase ADP-Glo kinase assay, Promega); format: biochemical; details: Table 2
experimental readout: IC50

* Cc1cccc(-c2ccn(-c3cc(N4CCOCC4)nc(OCCc4ccnn4C)n3)n2)c1 | < 5 nM
* Cc1cccc(-c2ccn(-c3cc(N4CCOCC4)nc(Cc4ccccc4)n3)n2)c1 | 101 to 1000 nM
* Cc1cn(-c2cc(N3CCOCC3)nc(OCCc3cnn(C)c3)n2)nc1-c1ccccc1 | 101 to 1000 nM
* COc1nc(N2CCOCC2)c(C)c(-n2ccc(-c3cccc(C)c3)n2)n1 | 101 to 1000 nM
* Cc1cccc(-c2ccn(-c3nc(NCCc4cnccn4)cc(N4CCOCC4)n3)n2)c1 | 5 to 100 nM
* CNc1nc(N2CCOCC2)cc(-n2nc(-c3ccccc3)cc2C)n1 | 101 to 1000 nM
* c1cc(-c2cc(N3CCOCC3)nc(OCC3CCCO3)n2)n[nH]1 (stereo not shown) | 101 to 1000 nM
